These measurements were taken from patent US12180307B2.

pKd: −log10 of the molar value. Square brackets hold non-standard residues; d marks the D form. Peptide text beside a SMILES is read from it.
Below are pKd values measured for Human IL-13 (Homo sapiens, UniProt P35225).

compound	target-system	pKd
CC(C)[C@H]1NC(=O)[C@@H](Cc2ccccc2)NC(=O)[C@@H](CCCNC(=N)N)NC(=O)[C@@H]2CCCN2C(=O)[C@H](CCC(=O)O)NC(=O)[C@H](Cc2ccc(O)cc2)NC1=O [Compound 1, D-Arg D-Phe D- Val Tyr Glu Pro] (cyclo(EP[dR][dF][dV]Y))	Human IL-13 (Homo sapiens, UniProt P35225)	4.80
CC(C)[C@H]1NC(=O)[C@@H]([C@H](C)O)NC(=O)[C@H](CCC(=O)O)NC(=O)[C@H]2CCCN2C(=O)[C@H]2CCCN2C(=O)[C@H](Cc2c[nH]c3ccccc23)NC1=O [Compound 3, Glu D-Thr D-Val Trp D-Pro D-Pro] (cyclo(E[dT][dV]W[dP][dP]))	Human IL-13 (Homo sapiens, UniProt P35225)	4.64
CC(C)[C@H]1NC(=O)[C@H](CCC(=O)O)NC(=O)[C@H](CCCNC(=N)N)NC(=O)[C@H]2CCCN2C(=O)[C@H]2CCCN2C(=O)[C@H](Cc2c[nH]c3ccccc23)NC1=O [Compound 4, Arg Glu D-Val Trp D-Pro D-Pro] (cyclo(E[dV]W[dP][dP]R))	Human IL-13 (Homo sapiens, UniProt P35225)	4.58
CC(C)[C@@H]1NC(=O)[C@H](Cc2c[nH]c3ccccc23)NC(=O)[C@H]2CCCN2C(=O)[C@H]2CCCN2C(=O)[C@H](CCC(=O)O)NC(=O)[C@H](CCCNC(=N)N)NC1=O [Compound 5, Trp Val Arg Glu D-Pro D-Pro] (cyclo(E[dP][dP]WVR))	Human IL-13 (Homo sapiens, UniProt P35225)	4.33
CC(C)C[C@@H]1NC(=O)[C@@H](CCCNC(=N)N)NC(=O)[C@@H]2CCCN2C(=O)[C@H](CCC(=O)O)NC(=O)[C@@H]([C@H](C)O)NC(=O)[C@H](Cc2c[nH]c3ccccc23)NC(=O)[C@@H](Cc2c[nH]c3ccccc23)NC1=O [Compound 9, D-Arg Leu D-Trp Trp D-Thr Glu Pro] (cyclo(EP[dR]L[dW]W[dT]))	Human IL-13 (Homo sapiens, UniProt P35225)	3.47
CC(C)[C@H]1NC(=O)[C@@H]([C@H](C)O)NC(=O)[C@H](CCC(=O)O)NC(=O)[C@H](CCCNC(=N)N)NC(=O)[C@H](Cc2ccc(O)cc2)NC(=O)[C@H]2CCCN2C1=O [Compound 6, Tyr Arg Glu D-Thr D-Val D-Pro] (cyclo(E[dT][dV][dP]YR))	Human IL-13 (Homo sapiens, UniProt P35225)	4.26
CC(C)C[C@H]1NC(=O)[C@@H]2CCCN2C(=O)[C@@H](Cc2ccccc2)NC(=O)[C@H](CCCNC(=N)N)NC(=O)[C@H]([C@@H](C)O)NC(=O)[C@H]2CCCN2C1=O [Compound 7, Thr Arg D-Phe Pro D-Leu D-Pro] (cyclo(P[dL][dP]TR[dF]))	Human IL-13 (Homo sapiens, UniProt P35225)	4.07
